Values were extracted from PubChem BioAssay (NCI).

Tested on: HCT-116 colon
TEST_METHOD_NOTES: NCI-60 one-dose screen, 48 h (100 = growth as untreated, 0 = no growth, -100 = all killed)
SETUP_CONDITIONS: 10 µM unless noted
This is part of a sample that, as a whole, favours compounds with a hit. Of some 83,000 tested, about 20% had one in any assay. Calls of active or inactive are those of the source. Rule for the calls: active = growth percent below 10; inactive = the rest.
VALUE_KIND: growth

For the 4 molecules below, give their growth values.
1. CC(=O)O[C@@H]1C2=C(C)C3(CC3)[C@@](C)(O)C(=O)C2=C[C@@]1(C)CO
2. O=[N+]([O-])c1ccccc1N1CCNCC1
3. Cc1cc([N+](=O)[O-])c(Cl)cc1NS(=O)(=O)c1ccccc1
4. CC(C)C1c2ccc(O)cc2Oc2nc(N)c(C#N)c(N)c21 (stereo not given)

1. 6.86% (active)
2. 101% (inactive)
3. 87.3% (inactive)
4. 103% (inactive)

For the 6 molecules below, give their growth values.
1. CCC(/C=C(C)/C=C/C(=O)c1c(O)c(-c2ccc(O)cc2)c[nH]c1=O)CO (stereo not given)
2. COc1ccc(/C=C\c2cc(OC)c(OC)c(OC)c2)cc1N/C=C\C(=O)c1c[nH]c2ccccc12
3. CC(N)Cc1ccc(O)cc1 (stereo not given)
4. Cc1cc(N(CCCl)CCCl)ccc1C=Nc1ccc2ccccc2c1
5. O=S(=O)(Cl)c1ccccc1 (tested in a mixture with another compound)
6. CO[C@@H]([CH2][Hg][S]C#N)[C@@H]([CH2][Hg][S]C#N)OC

80.1% (inactive)
2.62% (active)
100% (inactive)
79.9% (inactive)
99.4% (inactive)
-100% (active)

----------
Kindly supply the reported growth values for the records listed here.
Test system: SK-OV-3 ovarian
TEST_METHOD_NOTES: NCI-60 one-dose screen, 48 h (100 = growth as untreated, 0 = no growth, -100 = all killed)
SETUP_CONDITIONS: 10 µM unless noted
Experimental: Growth inhibition of the SK-OV-3 human tumor cell line is measured as a screen for anti-cancer activity. Cells are grown in 96 well plates and exposed to the test compound for 48 hours. Compounds are tested at a single concentration, which is 10^-5 M for most compounds. The reported endpoint is percent growth (GI% or GIPRCNT), where numbers from 0 - 100% represent growth inhibition, and numbers from -100% - 0 represent cell death. For example, a value of 40 represents 60% growth inhibition. […]
Compounds without any hit were thinned out: in the full panel of roughly 83,000, 20% have a hit.
Numbers only, in %.

The cases that follow already have their growth on record.
CCCCCCCCCCOc1ccc(C(=O)Oc2ccc(CSP3(=O)OCC4OC(n5ccc(=O)[nH]c5=O)C(F)C4OP(=O)(O)OCC4OC(n5cnc6c(N)ncnc65)C(F)C4O3)cc2)cc1 (stereo not given): 97.8
O=CC(Br)C(Br)c1ccccc1 (stereo not given): 109
[O]=[Sn]([CH]1CCCCC1)[CH]1CCCCC1: -98.2
Cc1cc(N(CCCl)CCCl)ccc1C=Nc1ccc2ccccc2c1: 80.9

Turning to the following molecule.
Fill blank: measured growth of the molecule C[CH2][Sn]([CH2]C)([CH2]C)[NH]S(=O)(=O)c1ccc(C)cc1 is ____.
110

----------
Tested on: HL-60(TB) leukemia
TEST_METHOD_NOTES: NCI-60 one-dose screen, 48 h (100 = growth as untreated, 0 = no growth, -100 = all killed)
SETUP_CONDITIONS: 10 µM unless noted
Description: Growth inhibition of the HL-60(TB) human tumor cell line is measured as a screen for anti-cancer activity. Cells are grown in 96 well plates and exposed to the test compound for 48 hours. Compounds are tested at a single concentration, which is 10^-5 M for most compounds. The reported endpoint is percent growth (GI% or GIPRCNT), where numbers from 0 - 100% represent growth inhibition, and numbers from -100% - 0 represent cell death. For example, a value of 40 represents 60% growth inhibition. […]
The panel holds about 83,000 compounds, 20% with a hit somewhere; the sample as a whole holds those more often.
Please use Fulfilled for growth under 80% and Not fulfilled for everything else, ties included.

Hi there! Is growth for COc1ccc2cc(-c3ccc(-c4ccc(C(=N)N)s4)s3)ccc2c1 below 80%, do you know?
Fulfilled

// repeat for O=C1/C(=C/c2ccc3c(c2)OCO3)SC(=S)N1CCc1ccc(O)cc1 and report
Not fulfilled

// repeat for CCCCCCCCn1ccc2cc(NC(=O)CN=[N+]=[N-])ccc21 and report
Not fulfilled

// repeat for C=C(C)[C@@H]1CC[C@]2(C(=O)N3CCN(C)CC3)CC[C@]3(C)[C@H](CC[C@@H]4[C@@]5(C)C/C(=C/c6ccncc6)C(=O)C(C)(C)[C@@H]5CC[C@]43C)[C@@H]12 and report
Fulfilled

// repeat for Cc1ccc2nc(-c3ccc(-n4on4-c4ccc(/C=C/c5ccc(-n6on6-c6ccc(-c7nc8ccc(C)cc8s7)cc6)cc5S(=O)(=O)O)c(S(=O)(=O)O)c4)cc3)sc2c1 and report
Not fulfilled

// repeat for O=C(NNC(=O)c1ccc([N+](=O)[O-])cc1)c1ccc([N+](=O)[O-])cc1 and report
Not fulfilled

// repeat for O=C(O)C1CCC(=O)N1C(=O)OCc1ccccc1 (centres undefined) and report
Not fulfilled

// repeat for COc1cc(/C=C/c2cc(/C=C/c3ccc(O)c(OC)c3)nc(N)n2)ccc1O and report
Fulfilled

// repeat for COc1ncc(-c2ccc3nccc(C#CCCCCC(=O)O)c3c2)cc1NS(=O)(=O)c1ccc(F)cc1F and report
Fulfilled

// repeat for CN(C)c1ccc(/C=N/N=C(N)N)cc1 and report
Fulfilled
